- system_under_test: specific receptor on the membrane of human neutrophils (leukotriene B4) (Homo sapiens)
- Construct: Freshly-prepared buffy coat layers from two individuals were obtained from a local blood donor center; endogenous in cells; host or cells: intact human peripheral blood neutrophils from buffy coats of two donors
- Sequence (Q15722 whole entry): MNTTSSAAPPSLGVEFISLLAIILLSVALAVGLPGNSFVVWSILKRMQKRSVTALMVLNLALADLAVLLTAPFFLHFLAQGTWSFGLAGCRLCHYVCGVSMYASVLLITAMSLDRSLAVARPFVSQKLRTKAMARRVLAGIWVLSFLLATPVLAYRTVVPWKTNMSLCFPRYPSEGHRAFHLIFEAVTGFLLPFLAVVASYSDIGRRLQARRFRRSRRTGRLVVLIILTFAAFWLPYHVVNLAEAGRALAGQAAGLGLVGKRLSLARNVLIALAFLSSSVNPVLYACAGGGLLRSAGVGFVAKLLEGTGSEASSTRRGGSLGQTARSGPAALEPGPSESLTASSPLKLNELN
- assay: Inhibition of Binding of ^3 H-LTB4 to Peripheral Human Neutrophils
- condition_info: drug concentration 10^-7 M; 0.1-0.2 nM ^3 H-LTB4, 10 minutes at 4° C; read-out: LTB4 Binding Inhibition
test_readout: inhibition at 0.1 µM (%)
Quick reminder: number only, in %, skip the unit.

Solved cases (4 shown):
[[record]]
chemical_structure = "CCCCCCCCCCOc1ccc(C(=O)c2ccccc2CC(=O)O)cc1CCC(=O)O"
test_readout = "inhibition at 0.1 µM"
assay_result = 17

[[record]]
chemical_structure = "CCCCCCCCCCOc1ccc(C(=O)c2cccc(C(=O)O)c2)cc1CCC(=O)O"
test_readout = "inhibition at 0.1 µM"
assay_result = 17

[[record]]
chemical_structure = "COc1cccc(CCCCCCOc2ccc(C(=O)c3cccc(C(=O)O)c3)cc2CCC(=O)O)c1"
test_readout = "inhibition at 0.1 µM"
assay_result = 46

[[record]]
chemical_structure = "COc1ccc(CCCCCCOc2ccc(C(=O)c3cccc(C(=O)O)c3)cc2CCC(=O)O)cc1"
test_readout = "inhibition at 0.1 µM"
assay_result = 68


Now look at this one.
Short answer for CCCCCCCCCCOc1ccc(C(=O)c2cccc(C(=O)O)c2)cc1CCCC(=O)O : inhibition at 0.1 µM was 4

* * *

Listed compounds paired with reported inhibition at 1 µM
- system_under_test: specific receptor on the membrane of human neutrophils (leukotriene B4) (Homo sapiens)
- Construct: Freshly-prepared buffy coat layers from two individuals were obtained from a local blood donor center; endogenous in cells; host or cells: intact human peripheral blood neutrophils from buffy coats of two donors
- assay: Inhibition of Binding of ^3 H-LTB4 to Peripheral Human Neutrophils
- condition_info: drug concentration 10^-6 M; 0.1-0.2 nM ^3 H-LTB4, 10 minutes at 4° C; read-out: LTB4 Binding Inhibition
Quick reminder: number only, in %, skip the unit.

Solved cases (6 shown):
[[record]]
compound = "CCCCCCCCCCOc1ccc(C(=O)c2cccc(-c3nnn[nH]3)c2)cc1Cc1nnn[nH]1"
test_readout = "inhibition at 1 µM"
assay_result = 20

[[record]]
compound = "O=C(O)CCc1cc(C(=O)c2cccc(C(=O)O)c2)ccc1OCCCCCCc1ccc(F)cc1"
test_readout = "inhibition at 1 µM"
assay_result = 81

[[record]]
compound = "CCCCCCCCOc1ccc(C(O)c2cccc(C(=O)O)c2)cc1CC(=O)O (stereo not shown)"
test_readout = "inhibition at 1 µM"
assay_result = 11

[[record]]
compound = "O=C(O)CCc1cc(NC(=O)c2cccc(C(=O)O)c2)ccc1OCCCCCCc1ccccc1"
test_readout = "inhibition at 1 µM"
assay_result = 72

[[record]]
compound = "CCCCCCCCCCOc1ccc(C(=O)c2cccc(C(=O)O)c2)c(CC(=O)O)c1"
test_readout = "inhibition at 1 µM"
assay_result = 23

[[record]]
compound = "O=C(O)CCc1cc(C(=O)c2cccc(C(=O)O)c2)ccc1OCCCC[S+]([O-])c1ccccc1 (stereo not shown)"
test_readout = "inhibition at 1 µM"
assay_result = 8


Short answer for CCCCCCCCCCOc1ccc(C(=O)c2cccc(C(=O)O)c2)cc1CCCC(=O)O : inhibition at 1 µM was 52

Short answer for O=C(O)CCc1cc(C(=O)c2cccc(C(=O)O)c2)ccc1OCCCCC=Cc1ccccc1 : inhibition at 1 µM was 91

Short answer for C=C(c1cccc(C(=O)O)c1)c1ccc(OCCCCCCCCCC)c(CCC(=O)O)c1 : inhibition at 1 µM was 37

Short answer for C[S+]([O-])c1ccc(C=CCCCCOc2ccc(C(=O)c3cccc(C(=O)O)c3)cc2CCC(=O)O)cc1 (stereo not shown) : inhibition at 1 µM was 96

Short answer for CSc1ccc(C=CCCCCOc2ccc(C(=O)c3cccc(C(=O)O)c3)cc2CCC(=O)O)cc1 : inhibition at 1 µM was 79
